Assay: NCI Yeast Anticancer Drug Screen. Data for the bub3 strain (AID 167)
Conditions: S. cerevisiae bub3 mutant strain, at 50.0 µM
Compounds without any hit were thinned out: in the full panel of roughly 79,000, 15% have a hit. Calls of active or inactive are those of the source. Cut-off read from the data, not from the text of the source: active = growth inhibition above about 70%; inactive = the rest.
Hello, when you answer, please use one of the following outcomes: True (active), False (inactive)

Field: example entries. Status: answers known.
compound: CN(C)c1ccc(-c2c(C#N)c(O)n(NS(=O)(=O)c3ccccc3)c(=O)c2C#N)cc1
assigned category: False
//
compound: COc1ccccc1-c1coc2c(ccc3oc(C(C)C)cc32)c1=O
assigned category: False
//
compound: CS(=O)(=O)CCC(Nc1ccc([N+](=O)[O-])cc1[N+](=O)[O-])C(=O)O (stereo not drawn)
assigned category: False
//
compound: COc1ccc(/C=C2\C(=O)N(C(=O)c3ccc(NC(C)=O)cc3)N=C2C)cc1
assigned category: False
//
compound: O=C(C[n+]1ccccc1)c1cc2c(c3ccccc13)CCCC2
assigned category: False
//
compound: Cc1ccc(CNC(=S)Nc2ccc(F)cc2)c(C)c1
assigned category: False
//
compound: CNc1ncnc2[nH]cc([N+](=O)[O-])c12
assigned category: False
//
compound: c1ccc(SSc2ccc3ccccc3c2)cc1
assigned category: False

We next turn to a different compound, shown below.
Incoming: What was the test verdict on C=C(Cl)CSc1ncnc2nc[nH]c12 ?
Outgoing: False

* * *

Assay: NCI Yeast Anticancer Drug Screen. Data for the cln2 rad14 strain (AID 165);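 note: 0% = growth equal to vehicle treated cultures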
Details: S. cerevisiae cln2 rad14 strain, at 50.0 µM, active compounds read high
Protocol: Growth inhibition of yeast strains with defined genetic alterations is measured as a screen for potential anti-cancer activity. Selected strains with alterations in DNA damage repair or cell cycle control were exposed to compounds and growth inhibition was measured relative to vehicle treated controls. The strain used in this assay is cln2 rad14
This is part of a sample that, as a whole, favours compounds with a hit. Of some 79,000 tested, about 15% had one in any assay.
Listed here are molecules together with their documented growth inhibition.
Reply numerically in %, unit not repeated.

molecule: CC(=O)Nc1nnnn1C
property name: growth inhibition
unit string: %
measurement: -40.1
//
molecule: CCCCCCCCCCCCSc1nc2c([nH]1)c(=O)n(C)c(=S)n2C
property name: growth inhibition
unit string: %
measurement: 16.4
//
molecule: CC(=O)OC12c3ccccc3C(c3ccccc31)C1C(=O)N(c3ccccn3)C(=O)C12 (configuration not stated)
property name: growth inhibition
unit string: %
measurement: 3.35
//
molecule: CC(OS(C)(=O)=O)C(C)OS(C)(=O)=O (configuration not stated)
property name: growth inhibition
unit string: %
measurement: -10.4
//
molecule: CCOc1ccccc1C(=O)N(CC)CC
property name: growth inhibition
unit string: %
measurement: -5.85

Incoming: Please report the measured growth inhibition for O=C1CC(NC(=O)C(F)(F)F)c2c(Br)sc(N3CCNCC3)c21 (configuration not stated)
Outgoing: -2.2

Incoming: Hello, please tell me recorded growth inhibition for this one: CC(NC(=O)C(N)CC(=O)O)NC(=O)N(C)C(C)(C)C (configuration not stated)
Outgoing: 2.65

Incoming: Provide measured growth inhibition value, entry: CSc1c(S(C)=O)[nH]c2cc(Br)cc(Br)c12 (configuration not stated)
Outgoing: 71.6

Incoming: // fetch growth inhibition given entry O=C1CSC(c2ccc(C(F)(F)F)cc2)N1c1nncs1 (configuration not stated)
Outgoing: -1.45

Incoming: Answer with the recorded growth inhibition of c1ccc(-c2ccc(-c3c(-c4ccccc4)ccc(-c4ccccc4)c3-c3ccccc3)cc2)cc1 only.
Outgoing: 20.9

Incoming: Write down growth inhibition measured for item C=CC(OC(=O)/C=C/C)OC(=O)/C=C/C
Outgoing: 12.6

Incoming: # return recorded growth inhibition for entry CC(C)c1ccc(/C=N\NC(=O)NNC(=O)c2ccccc2)cc1
Outgoing: -95.8

* * *

Experiment: NCI Yeast Anticancer Drug Screen. Data for the mlh1 rad18 strain (AID 175)
Conditions: S. cerevisiae mlh1 rad18 strain growth inhibition; at 50.0 µM
This is part of a sample that, as a whole, favours compounds with a hit. Of some 79,000 tested, about 15% had one in any assay. Calls of active or inactive are those of the source. Cut-off read from the data, not from the text of the source: active = growth inhibition above about 70%; inactive = the rest.
Result category, one only: active, inactive

Here's what some known entries look like.
molecule: CC(C)=CCCC(C)(O)C1CC=C(C)CC1 (stereo unspecified)
assigned category: inactive
//
molecule: COC1/C=C/OC2(C)Oc3c(C)c(O)c4c(O)c(c(C=NNC(=O)c5ccc(N)cc5)c(O)c4c3C2=O)NC(=O)/C(C)=C/C=C/C(C)C(O)C(C)C(O)C(C)C(OC(C)=O)C1C (stereo unspecified)
assigned category: inactive

Incoming: Check the results log: what was the call for O=C(Nc1ccc(Cl)cc1)Nc1nnc2nc(CC(=O)c3ccc4ccccc4c3)c(=O)[nH]n12 ?
Outgoing: inactive

* * *

Reported growth inhibition values for the following compounds.
Assay: NCI Yeast Anticancer Drug Screen. Data for the sgs1 mgt1 strain (AID 161);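 note: 0% = growth of cultures given vehicle only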
Conditions: S. cerevisiae sgs1 mgt1 strain, at 50.0 µM, active compounds read high
The panel holds about 79,000 compounds, 15% with a hit somewhere; the sample as a whole holds those more often.
Answer format: numeric, % implied, no suffix.

compound: CC(=O)Oc1cccc(C)c1
property name: growth inhibition
measurement: -18.8

Incoming: Give growth inhibition for the following compound: COc1cc(C(=O)C/C(CCCC(=O)Nc2ccccc2[N+](=O)[O-])=N/NC(=O)c2cc3ccccc3cc2O)ccc1O
Outgoing: -9.75

Incoming: Provide only the value of recorded growth inhibition for CN(C)CCOC(=S)S
Outgoing: -9.3

Incoming: Assign growth inhibition to the following record: COc1cc(C(=O)O)cc(OC(C)=O)c1OC
Outgoing: 8.3

Incoming: State its growth inhibition: CC(C)CCCC(C)C1CCC2C3CC=C4CC(OP(=O)(O)OC5CCC6(C)C(=CCC7C6CCC6(C)C(C(C)CCCC(C)C)CCC76)C5)CCC4(C)C3CCC12C (configuration not stated)
Outgoing: -3.65

Incoming: Supply reported growth inhibition belonging to this compound: O=C(O)Cc1ccc(I)cc1
Outgoing: 26.9

Incoming: Please give measured growth inhibition of the following entry: CC(=O)OC(C)/C=C\C#N (configuration not stated)
Outgoing: 5.25

Incoming: Annotate the compound Cc1ccc(S(=O)(=O)NCCCN(CCCNS(=O)(=O)c2ccc(C)cc2)S(=O)(=O)c2ccc(C)cc2)cc1 with its measured growth inhibition.
Outgoing: -5.1

Incoming: Hello, please tell me recorded growth inhibition for this one: Cc1cccc(C(=O)O)n1.[Cu+2]
Outgoing: -19.4

Incoming: Consider the compound CCOC(=O)NC(=O)c1cn(CCN2CCN(C(=O)NCCCCCCNC(=O)N3CCN(CCn4cc(C(=O)NC(=O)OCC)c(=O)n(CCN(CC)CC)c4=O)CC3)CC2)c(=O)n(CCC(CC)CC)c1=O . State its measured growth inhibition.
Outgoing: -6.65

* * *

Test: NCI Yeast Anticancer Drug Screen. Data for the mlh1 rad18 strain (AID 175)
Conditions: S. cerevisiae mlh1 rad18 strain growth inhibition; at 50.0 µM; active compounds read high
Compounds without any hit were thinned out: in the full panel of roughly 79,000, 15% have a hit.
property name: growth inhibition (%)
Hi! Could you send only the number? It should be in %, unit omitted.

molecule: CN(c1ncc(Cc2cnc(N(C)C3CCN(Cc4ccccc4)CC3)nc2)cn1)C1CCN(Cc2ccccc2)CC1
property name: growth inhibition
unit string: %
measurement: -21.8

Incoming: Give me measured growth inhibition, please, for this molecule: CC1CCC(=O)N1C (centres undefined)
Outgoing: -9.5

Incoming: Give growth inhibition for Cc1ccc(OCCNCCO)cc1
Outgoing: 18.2

Incoming: Note growth inhibition for the molecule shown: CC(C)N1CN(C(C(=O)N[C@@H]2C(=O)N3C2SC(C)(C)C3C(=O)O)c2ccccc2)CSC1=S (some centres undefined)
Outgoing: -11.2

Incoming: Name the recorded growth inhibition of the molecule listed here: O=C1c2ccccc2CN(C(=Nc2ccccc2)Nc2ccccc2)c2ccccc21
Outgoing: 14.9

* * *

Catalogue of growth inhibition values
Assay: NCI Yeast Anticancer Drug Screen. Data for the mec2-1 strain (AID 157)
Settings: S. cerevisiae mec2-1 strain, at 50.0 µM, active compounds read high
About 79,000 compounds went through this panel and 15% of them were active in at least one assay; those are over-represented in the sample as a whole.
Give a bare numeral; the unit % is implied.

molecule: CC(C)NC(=O)OCc1c(COC(=O)NC(C)C)c(S(=O)(=O)c2ccccc2)n2c1CCC2
unit string: %
growth inhibition: 1.5

Incoming: Given the molecule c1ccc(SSc2ccc3ccccc3c2)cc1 , write its reported growth inhibition.
Outgoing: 39.1

Incoming: Quick one: give measured growth inhibition for C[C@H]1CCCCC[C@@H]2CC(=O)CC2C(=O)CCC(=O)O1 (stereo partly specified)
Outgoing: -4.25

Incoming: Specify measured growth inhibition for COc1ccc(N=Cc2cc(Cl)cc(Cl)c2OC(=O)c2ccccc2)cc1 .
Outgoing: -31.1

* * *

# growth inhibition per record follows
Test: NCI Yeast Anticancer Drug Screen. Data for the mlh1 rad18 strain (AID 175)
Conditions: S. cerevisiae mlh1 rad18 strain growth inhibition; at 50.0 µM; active compounds read high
About 79,000 compounds went through this panel and 15% of them were active in at least one assay; those are over-represented in the sample as a whole.
API: value field is a number in %; no unit string.

Worked examples, 2 molecules total:
molecule: CCCCCCCCCCCCCCCC/C(C(=O)OC)=C(/O)C(=O)OCC
growth inhibition, %: -5.75

molecule: O=C(CC(=O)n1nc(-c2ccccc2)c(N=Nc2ccccc2Cl)c1-c1ccccc1)Nc1ccc(Cl)cc1
growth inhibition, %: -8.65

Incoming: Read off the recorded growth inhibition for CCCC(=O)c1ccc(C)cc1
Outgoing: 2.65

Incoming: Return reported growth inhibition. Input molecule: ClCCOCCOc1ccccc1Cl
Outgoing: -7

Incoming: State its growth inhibition for this molecule: c1ccc(N=C2SC(c3ccccc3)CN2C23CC4CC(CC(C4)C2)C3)cc1 (stereo not drawn)
Outgoing: -9.8
